Data credit: patent US7018642B2

- System: P. fluorescens strain ATCC 13525
- assay text: Biofilm prevention screen (96-well microplate, crystal violet)
- Format: cell-based
- condition info: Pseudomonas fluorescens, ATCC13525, 32 μM, positive = prevention, negative = enhancement of biofilm formation, quadruplicate, read-out: average percentage reduction of biofilm formed relative to DMSO controls
parameter: inhibition at 32 µM (%)
Give a bare numeral; the unit % is implied.

Examples with answers:
CCCCCCCCCCNC(=O)[C@@H]1CCN1; -8
CCCCCCCCNC(=O)[C@@H]1CCCCN1C(=O)OC(C)(C)C; 6

# evaluate next
Name the recorded inhibition at 32 µM of the item CCCCCCNC(=O)[C@H]1CCCN1C(=O)OC(C)(C)C in your answer. 7
